Biological target: Gamma-secretase
Test: Inhibition of gamma secretase C100Flag cleavaging activity in HeLa cell membranes assessed as M-amyloid beta-40 production by cell free assay
Parameters: species or system Homo sapiens
MEASUREMENT_KIND: pIC50
Friendly reminder that pIC50 comes from taking -log10 of the concentration in mol/L.

Examples with their reported pIC50 follow.
[
  {
    "COMPOUND": "CCC[C@H](NC(=O)[C@@H](O)C(C)C)C(=O)Nc1ncc([C@H](C)CCCC(C)(C)OC)s1",
    "MEASUREMENT_KIND": "pIC50",
    "VAL": 8.05
  },
  {
    "COMPOUND": "CCC[C@H](NC(=O)CCc1cc(F)cc(F)c1)C(=O)Nc1ncc(C(C)CCCC(C)(C)O)s1 (stereo not given in full)",
    "MEASUREMENT_KIND": "pIC50",
    "VAL": 8.22
  },
  {
    "COMPOUND": "CCC[C@H](NC(=O)Cc1cc(F)cc(F)c1)C(=O)Nc1ncc(C(C)N[C@H](C(=O)OC)C(C)C)s1 (stereo not given in full)",
    "MEASUREMENT_KIND": "pIC50",
    "VAL": 8.40
  },
  {
    "COMPOUND": "CC[C@H](NC(=O)CCc1cc(F)cc(F)c1)C(=O)Nc1ncc([C@H](C)CCCC(C)(C)OC)s1",
    "MEASUREMENT_KIND": "pIC50",
    "VAL": 6.14
  },
  {
    "COMPOUND": "CCC[C@H](NC(=O)C(=O)C(C)(C)C)C(=O)Nc1ncc(C(C)C)s1",
    "MEASUREMENT_KIND": "pIC50",
    "VAL": 6.94
  }
]

Lab book: pIC50 of CCC[C@H](NC(=O)[C@@H](O)C(C)(C)C)C(=O)Nc1ncc(C(C)(C)O)s1 noted as 7.02

Lab book: pIC50 of CCC[C@H](NC(=O)[C@@H](O)c1cc(F)cc(F)c1)C(=O)Nc1ncc(C(CC)CC)s1 noted as 8.21

Lab book: pIC50 of CC[C@H](NC(=O)CCc1cc(F)cc(F)c1)C(=O)Nc1ncc(C(C)CCCC(C)(C)OC)s1 (stereo not given in full) noted as 7.87

Lab book: pIC50 of CCC[C@H](NC(=O)Cc1cc(F)cc(F)c1)C(=O)Nc1ncc(C(O)(CC)CC)s1 noted as 9.00

Lab book: pIC50 of CCCCN(CC)Cc1cnc(NC(=O)[C@H](CCC)NC(=O)Cc2cc(F)cc(F)c2)s1 noted as 7.52

Lab book: pIC50 of CCC[C@H](NC(=O)Cc1cc(F)cc(F)c1)C(=O)Nc1ncc(C(C)NCC(C)(C)C)s1 (stereo not given in full) noted as 6.87

Lab book: pIC50 of CCC[C@H](NC(=O)Cc1cc(F)cc(F)c1)C(=O)Nc1ncc(C(C)NCCC(C)C)s1 (stereo not given in full) noted as 8.59

Lab book: pIC50 of CCC[C@H](NC(=O)CCc1cc(F)cc(F)c1)C(=O)Nc1ncc(C(C)CCCC(C)(C)OC)s1 (stereo not given in full) noted as 8.00

Lab book: pIC50 of CCC[C@H](NC(=O)Cc1cc(F)cc(F)c1)C(=O)Nc1ncc(C(C)CC(C)(C)C)s1 (stereo not given in full) noted as 7.19

Lab book: pIC50 of CCCCNC(C)c1sc(NC(=O)[C@H](CCC)NC(=O)Cc2cc(F)cc(F)c2)nc1C (stereo not given in full) noted as 8.15

Lab book: pIC50 of CCC[C@H](NC(=O)[C@@H](O)C(C)C)C(=O)Nc1ncc([C@@H](C)CCCC(C)(C)OC)s1 noted as 8.05
